Test system: PRKG1
Set-up: species or system human, MV4-11 + K-562 + COLO205 + SK-N-BE2 + OVCAR-8
testParameters: read-out: apparent Kd; compound concentrations:100 nM and 1000 nM (sheet 'Samples'); n = 1
readoutKind: potency estimated from few doses (µM)
Write down the numeric answer in µM and omit the unit.

Here is how some molecules turned out for potency estimated from few doses.
{"columns": ["molecule", "testTarget", "unitSymbol", "potency estimated from few doses"],
 "data": [
  ["Cl.Cl.NC[C@H](CC1CCCCC1)NC(=O)c1ccc(-c2ccnc3[nH]ccc23)s1.NC[C@H](CC1CCCCC1)NC(=O)c1ccc(-c2ccnc3[nH]ccc23)s1 [GSK1581428A]", "PRKG1", "µM", 0.0414],
  ["COc1ccc(O)c(C(=O)c2ccc(C(=O)O[C@@H]3CCCNC[C@H]3NC(=O)c3ccncc3)cc2)c1F.Cl", "PRKG1", "µM", 0.00447],
  ["CC(C)NCC(Cc1ccccc1)NC(=O)c1cc(Br)c(-c2ccnc3[nH]ccc23)s1.CC(C)NCC(Cc1ccccc1)NC(=O)c1cc(Br)c(-c2ccnc3[nH]ccc23)s1.Cl.Cl (centres unmarked) [GSK1383281A]", "PRKG1", "µM", 0.0136],
  ["CCn1c(-c2nonc2N)nc2c(C#CC(C)(C)O)ncc(OCCCCN)c21.CCn1c(-c2nonc2N)nc2c(C#CC(C)(C)O)ncc(OCCCCN)c21.O=C(O)C(F)(F)F.O=C(O)C(F)(F)F [GSK507274A]", "PRKG1", "µM", 1.07],
  ["CCn1c(-c2nonc2N)nc2cnc(Oc3cccc(NC(=O)c4ccc(OCCN5CCOCC5)cc4)c3)cc21.Cl [GSK269962B]", "PRKG1", "µM", 0.0703]
]}

Task: // potency estimated from few doses lookup, key: Cl.Cl.NCC(NCc1ccc(-c2ccnc3[nH]ccc23)s1)c1ccccc1.NCC(NCc1ccc(-c2ccnc3[nH]ccc23)s1)c1ccccc1 (centres unmarked) [GSK1321565A]
Result: 1.06

Task: Given NCCNS(=O)(=O)c1ccc(-c2ccnc3[nH]ccc23)cc1 [GSK977617A] , state its recorded potency estimated from few doses.
Result: 0.621

* * *

Readings of IC50 for the listed compounds
Tested on: CK2alpha1
testParameters: Highest Assay Concentration (M): 9.9999999999999995E-7
Value and unit, in that order.

Some compounds with recorded IC50:
{"columns": ["structure", "assayValue"],
 "data": [
  ["CONC1=NC(=O)/C(=C/c2ccc3ncccc3c2)S1", "1.16e-07 M"],
  ["O=C1NC(=O)/C(=C/c2ccc3ncccc3c2)S1", "5.79e-07 M"]
]}

Next:
Task: Please report the recorded IC50 for O=C1N=C(Nc2ccccc2)S/C1=C\c1ccc2ncccc2c1 .
Result: 6.67e-08 M

* * *

Tested on: PIK3C3
Parameters: species or system human, MV4-11 + K-562 + COLO205 + SK-N-BE2 + OVCAR-8
testParameters: read-out: apparent Kd; compound concentrations:100 nM and 1000 nM (sheet 'Samples'); n = 1
readoutKind: potency estimated from few doses (µM)
Your answer is read as µM, so omit the unit and give the number.

# annotated cases, reported potency estimated from few doses shown
{"columns": ["molecule", "assayValue"],
 "data": [
  ["CC(C)(C)OC(=O)NC1CCCN(c2cc(-c3ccc4c(N)n[nH]c4c3)nc(N)n2)C1 (centres unmarked) [GSK2286096A]", 0.978],
  ["O=c1cc(N2CCOCC2)nc2n(Cc3cccc(Cl)c3Cl)c(C3CC3)nn12 [GSK2358994A]", 0.00902],
  ["Nc1n[nH]c2ncc(-c3ccccc3)cc12", 1.32]
]}

Task: Find the recorded potency estimated from few doses belonging to COC(=O)Nc1nc2ccc(Oc3ccc(CC(=O)Nc4cc(C(F)(F)F)ccc4F)cc3)cc2[nH]1 [GW680903X] and report it.
Result: 1.51

Task: Record request: potency estimated from few doses value, item C=CC(=O)Nc1cc(-n2c(=O)ccc3cnc4ccc(-c5ccc(NS(C)(=O)=O)cc5)cc4c32)ccc1C
Result: 1.53

Task: Could you share which potency estimated from few doses value was measured for Cc1nn2c(=O)cc(N3CCOCC3)nc2n1Cc1cccc(Cl)c1Cl [GSK2342769A] ?
Result: 0.0081
